Items are presented alongside their recorded GI50.
# Tested on: T-47D breast
# test-details: NCI tumour cell line growth inhibition, 48 h

compound=COc1cc2c(c(OC)c1OC)-c1ccc(NNC(N)=S)c(=O)cc1[C@@H](NC(C)=O)CC2 recorded_result="> 100 µM"
compound=FC(F)(F)c1cccc(Nc2nc(-c3ccccc3)nc3ncccc23)c1 recorded_result="3.53 µM"
compound=OCCN(CCO)c1ncnc2c1ncn2Cc1ccc(CCl)cc1 recorded_result="19.4 µM"
compound="OC1CSSC1Cn1cnc2c(Nc3ccc(OCc4cccc(F)c4)c(Cl)c3)ncnc21 (stereo unspecified)" recorded_result="1.3 µM"
compound=Cc1ccnc2c1ccc1c(C)ccnc12 recorded_result="0.883 µM"

Proceed to the following item.
Response field GI50 (T-47D breast) for item CN1CCCCC1CCN1c2ccccc2Sc2ccc(Cl)cc21 (stereo unspecified) : 4.25 µM
